System: MCF7
protocolText: Antiproliferative activity against human MCF7 cells after 72 hrs by SRB assay
Format: functional, cell-based
conditionNotes: MCF7, 72 h
reportedProperty: pIC50
// pIC50: -log10(molar conc.)

Need pIC50, item O=C1NC(=O)/C(=C\c2ccc(-c3ccc(Cl)c(Cl)c3)o2)S1
4.83

Need pIC50, item O=C1NC(=O)/C(=C/c2ccc(-c3ccc(O)c(C(=O)O)c3)o2)S1
4.09

Need pIC50, item O=C1NC(=O)/C(=C\c2ccc(-c3ccc(Cl)cc3Cl)o2)S1
4.76

Need pIC50, item O=C1NC(=O)/C(=C\c2ccc(-c3ccc(F)c(Cl)c3)o2)S1
4.77

Need pIC50, item O=C1NC(=O)/C(=C\c2ccc(-c3ccc(Br)cc3)o2)S1
4.33

Need pIC50, item CCOc1ccc(/C=C2/SC(=O)NC2=O)cc1OC
4.06

Need pIC50, item O=C1NC(=O)/C(=C\c2cc3c(cc2Br)OCO3)S1
4.61

Need pIC50, item O=C1NC(=S)S/C1=C\c1ccc(-c2ccc(C(=O)O)cc2)o1
4.38

Need pIC50, item O=C1NC(=O)/C(=C\c2ccc(Cl)c(Cl)c2)S1
4.29

Need pIC50, item O=C1NC(=O)/C(=C/c2cccc(OCc3ccc(Cl)cc3Cl)c2)S1
4.60

Need pIC50, item CCOc1cc(/C=C2/SC(=O)NC2=O)cc(Br)c1O
4.25

---

System: MCF7
protocolText: Antiproliferative activity against human MCF7 cells after 72 hrs by SRB assay
Assay type: functional, cell-based
conditionNotes: MCF7, 72 h
Please go through the items and note down their IC50.
Numbers only here, please. The scale is µM.

Need IC50, item COc1cc(/C=C2/SC(=O)NC2=O)cc(I)c1O
50.8

Need IC50, item O=C1NC(=O)/C(=C\c2ccc(-c3cccc(Cl)c3Cl)o2)S1
21.5

Need IC50, item O=C1NC(=O)/C(=C\c2ccc(-c3ccc(F)cc3)o2)S1
36.9

Need IC50, item O=C1NC(=O)/C(=C\c2ccc(-c3cccc(Br)c3)o2)S1
25.3

Need IC50, item O=C1NC(=O)/C(=C\c2cccc([N+](=O)[O-])c2)S1
55.8

---

assayedSystem: UniProt P08069
Sequence (P08069 31-736 limits assumed): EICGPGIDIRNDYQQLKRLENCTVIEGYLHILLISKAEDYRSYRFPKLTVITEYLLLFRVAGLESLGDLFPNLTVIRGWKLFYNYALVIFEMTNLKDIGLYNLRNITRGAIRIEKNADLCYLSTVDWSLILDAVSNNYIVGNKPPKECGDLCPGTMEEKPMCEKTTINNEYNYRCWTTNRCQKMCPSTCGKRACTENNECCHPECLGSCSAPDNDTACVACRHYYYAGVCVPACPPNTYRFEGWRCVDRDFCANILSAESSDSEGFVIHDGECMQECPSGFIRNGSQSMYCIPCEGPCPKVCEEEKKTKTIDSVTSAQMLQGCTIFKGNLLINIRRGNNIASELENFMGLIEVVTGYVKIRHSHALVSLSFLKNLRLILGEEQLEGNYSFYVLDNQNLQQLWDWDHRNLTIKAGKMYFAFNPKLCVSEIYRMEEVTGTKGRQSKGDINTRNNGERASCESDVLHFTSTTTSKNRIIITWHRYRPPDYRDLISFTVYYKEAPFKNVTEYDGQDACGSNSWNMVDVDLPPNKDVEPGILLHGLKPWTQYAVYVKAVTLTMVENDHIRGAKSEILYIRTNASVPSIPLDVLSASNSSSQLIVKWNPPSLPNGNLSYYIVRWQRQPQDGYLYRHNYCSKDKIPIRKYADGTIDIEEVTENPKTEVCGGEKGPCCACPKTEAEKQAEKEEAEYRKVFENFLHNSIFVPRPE
Sequence (P08069 741-1367 limits assumed): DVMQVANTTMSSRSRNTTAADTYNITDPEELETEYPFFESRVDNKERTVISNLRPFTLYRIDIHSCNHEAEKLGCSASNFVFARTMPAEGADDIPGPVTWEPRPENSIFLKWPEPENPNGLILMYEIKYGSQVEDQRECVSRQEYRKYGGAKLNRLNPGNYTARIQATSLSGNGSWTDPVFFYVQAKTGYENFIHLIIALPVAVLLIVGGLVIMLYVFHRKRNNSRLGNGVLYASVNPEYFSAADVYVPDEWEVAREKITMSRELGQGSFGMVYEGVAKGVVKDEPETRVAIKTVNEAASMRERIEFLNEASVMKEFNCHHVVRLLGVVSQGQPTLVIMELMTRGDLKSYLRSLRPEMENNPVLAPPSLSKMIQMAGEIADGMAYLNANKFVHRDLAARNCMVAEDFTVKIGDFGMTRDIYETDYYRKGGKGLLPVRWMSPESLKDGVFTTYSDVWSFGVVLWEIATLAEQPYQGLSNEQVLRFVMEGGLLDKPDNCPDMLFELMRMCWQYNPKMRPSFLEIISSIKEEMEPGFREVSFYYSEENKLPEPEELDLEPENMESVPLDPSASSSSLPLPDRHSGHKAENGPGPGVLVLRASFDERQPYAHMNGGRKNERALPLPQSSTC
Field: label. Allowed values: t (IC50 < 7 µM) or f (IC50 >= 7 µM).

Quick check: does O=C1NC(=O)/C(=C\c2ccccc2OCc2ccc(Cl)cc2Cl)S1 have IC50 under 7 µM?
f

Quick check: does CCOc1cc(/C=C2\SC(=O)NC2=O)c(Br)cc1OC have IC50 under 7 µM?
f

Quick check: does COc1cc(/C=C2\SC(=O)NC2=O)ccc1OCc1ccc(Cl)cc1Cl have IC50 under 7 µM?
f

Quick check: does O=C1NC(=O)/C(=C\c2ccc(N3CCCC3)c(F)c2)S1 have IC50 under 7 µM?
f

Quick check: does CCOc1cccc(/C=C2/SC(=O)NC2=O)c1O have IC50 under 7 µM?
f

Quick check: does O=C1NC(=O)/C(=C\c2ccc(-c3ccc(Br)cc3)o2)S1 have IC50 under 7 µM?
t

Quick check: does COc1cc(/C=C2/SC(=O)NC2=O)cc(OC)c1O have IC50 under 7 µM?
t

Quick check: does O=C1NC(=O)/C(=C/c2ccccc2F)S1 have IC50 under 7 µM?
t

Quick check: does O=C1NC(=O)/C(=C/c2ccc(Cl)cc2Cl)S1 have IC50 under 7 µM?
f

Quick check: does COc1c(Br)cc(/C=C2\SC(=O)NC2=O)cc1Br have IC50 under 7 µM?
t
